Test system: 883617-216-R-J1-PDC complex spheroids, growth, % test/control;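 further: exposure lasted 7 days after dosing on day 3 of spheroid growth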
measurement.protocol: Anticancer human tumor 883617-216-R-J1-PDC patient-derived bladder carcinoma cell line growth inhibition [AhR]
conditions.used: second compound 3.16 µM; first compound 0.000316 µM; stronger effect = lower value
Source text: Multicellular complex tumor spheroid response to aryl hydrocarbon receptor antagonists in combination with a variety of drugs and investigational agents in selected tumor cell lines […] Compounds. […] If the clinical Cmax for an agent had not been determined, the highest concentration tested was 10 microM (Table 1). […]
measure: viability, T/C

INSERT INTO results (molecule, meas_value) VALUES
  ('Cn1ncnc1C1c2n[nH]c(=O)c3cc(F)cc(c23)NC1c1ccc(F)cc1 (stereo unspecified) + Cc1ccccc1N=Nc1ccc(NC(=O)c2ccnn2C)c(C)c1', '82%'),
  ('CC[C@@]1(O)C(=O)OCc2c1cc1n(c2=O)Cc2cc3c(CN(C)C)c(O)ccc3nc2-1 + CC(CO)NC(=O)c1cc(-c2ccc(Cl)cc2)nn(-c2cnn(C)c2)c1=O', '73.7%'),
  ('Cn1ncnc1C1c2n[nH]c(=O)c3cc(F)cc(c23)NC1c1ccc(F)cc1 (stereo unspecified) + Cc1cncc(-c2nc(NCCc3c[nH]c4ccccc34)c3ncn(C(C)C)c3n2)c1', '106%'),
  ('CC[C@@]1(O)C(=O)OCc2c1cc1n(c2=O)Cc2cc3c(CN(C)C)c(O)ccc3nc2-1 + Cc1ccccc1N=Nc1ccc(NC(=O)c2ccnn2C)c(C)c1', '70%'),
  ('CC[C@@]1(O)C(=O)OCc2c1cc1n(c2=O)Cc2cc3c(CN(C)C)c(O)ccc3nc2-1 + Cc1cncc(-c2nc(NCCc3c[nH]c4ccccc34)c3ncn(C(C)C)c3n2)c1', '96.6%'),
  ('Cn1ncnc1C1c2n[nH]c(=O)c3cc(F)cc(c23)NC1c1ccc(F)cc1 (stereo unspecified) + CC(CO)NC(=O)c1cc(-c2ccc(Cl)cc2)nn(-c2cnn(C)c2)c1=O', '77.3%');

The measurements presented in this section are drawn from PubChem BioAssay AID1919004.
